- protocol summary: qHTS assay for identifying genotoxic compounds that show differential cytotoxicity against isogenic chicken DT40 cell lines with known DNA damage response pathways - Rev3 mutant cell line (AID 743014); also: nearly all actives have a fitted effect of over 55% in size; also: potency is read from the fitted curve at half-maximal effect
- experimental context: chicken DT40 Rev3-/- viability, CellTiter-Glo, 40 h; series mostly up to 68.4 µM
Records with an inconclusive call do not appear. Activity calls are given as the source filed them. Calls follow the shape of the dose curve; as a rule, active = well fitted cell-killing curve with a large enough effect in the repeat runs; inconclusive = weak or mixed curves, or effect the other way; inactive = no such curve, though single readings can be large or run the other way.
experimental readout: Potency

               mol_smiles   endpoint_result
0  Clc1cc(Cl)c(Cl)c(Cl)c1          inactive
1    O=C(O)COc1ccc(Cl)cc1          inactive
2      CCOP(=S)(OCC)SCSCC  27.3 µM (active)
3  O=C(Nc1ccccc1)Nc1cnns1  54.4 µM (active)

* * *

- assay target: Estrogen receptor (Homo sapiens) (UniProt P03372)
- Sequence (P03372 whole entry, looked up): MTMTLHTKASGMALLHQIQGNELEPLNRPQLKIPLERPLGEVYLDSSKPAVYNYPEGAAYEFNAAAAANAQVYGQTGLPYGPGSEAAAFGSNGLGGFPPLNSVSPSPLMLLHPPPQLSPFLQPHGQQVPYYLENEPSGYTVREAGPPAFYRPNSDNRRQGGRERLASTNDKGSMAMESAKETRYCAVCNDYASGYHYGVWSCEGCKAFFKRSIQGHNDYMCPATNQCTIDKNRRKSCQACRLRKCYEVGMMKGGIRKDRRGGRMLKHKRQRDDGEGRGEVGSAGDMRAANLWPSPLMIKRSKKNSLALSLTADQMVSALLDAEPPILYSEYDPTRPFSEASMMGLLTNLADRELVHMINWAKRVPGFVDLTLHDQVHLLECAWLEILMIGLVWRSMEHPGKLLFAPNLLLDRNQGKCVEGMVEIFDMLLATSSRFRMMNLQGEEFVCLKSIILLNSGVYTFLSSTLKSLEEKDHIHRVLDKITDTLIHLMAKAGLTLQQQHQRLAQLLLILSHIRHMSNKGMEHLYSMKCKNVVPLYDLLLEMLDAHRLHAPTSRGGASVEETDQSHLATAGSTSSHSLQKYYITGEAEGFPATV
- protocol summary: qHTS assay to identify small molecule agonists of the estrogen receptor alpha (ER-alpha) signaling pathway (AID 743075);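 also: HEK293 GripTite cells with ER-alpha and UAS-driven beta-lactamase reporter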
- experimental context: HEK293 ER-alpha-UAS-bla, beta-lactamase FRET ratio, 18 h; series mostly up to 70.1 µM
Calls of active or inactive are those of the source. Calls come from the whole dose curve.
Outcomes: 1.0 (active), 0.0 (inactive)

>>> df
                                    compound                              assay_target  label_class
 0  CO/C=C(/C(=O)OC)c1ccccc1COc1cccc(C(F)(F)F)n1  Estrogen receptor (Homo sapiens) (UniProt P03372)          1.0
 1                  O=C1C(=O)c2cccc3cccc1c23  Estrogen receptor (Homo sapiens) (UniProt P03372)          0.0
 2  O=S1(=O)OC(c2cc(Br)c(O)c(Br)c2)(c2cc(Br)c(O)c(Br)c2)c2ccccc21  Estrogen receptor (Homo sapiens) (UniProt P03372)          0.0
 3                           NNC(=O)c1cccnc1  Estrogen receptor (Homo sapiens) (UniProt P03372)          0.0
 4                     Clc1cccc(SC2CCNCC2)n1  Estrogen receptor (Homo sapiens) (UniProt P03372)          0.0
 5                    O=C(CCl)c1ccc(Cl)cc1Cl  Estrogen receptor (Homo sapiens) (UniProt P03372)          0.0
 6  CCCN(CC1CC1)c1c([N+](=O)[O-])cc(C(F)(F)F)cc1[N+](=O)[O-]  Estrogen receptor (Homo sapiens) (UniProt P03372)          0.0
 7  CCc1ccc(C(=O)NN(C(=O)c2cc(C)cc(C)c2)C(C)(C)C)cc1  Estrogen receptor (Homo sapiens) (UniProt P03372)          0.0
 8      O=C(OC1CCCCC1)c1ccccc1C(=O)OC1CCCCC1  Estrogen receptor (Homo sapiens) (UniProt P03372)          0.0
 9  CCOP(=S)(Oc1ccc([N+](=O)[O-])cc1)c1ccccc1 (centres undefined)  Estrogen receptor (Homo sapiens) (UniProt P03372)          0.0
10          CC(Cl)C(C)Cl (centres undefined)  Estrogen receptor (Homo sapiens) (UniProt P03372)          0.0
11                             C=C(C#N)CCC#N  Estrogen receptor (Homo sapiens) (UniProt P03372)          0.0
12                               O=NN1CCNCC1  Estrogen receptor (Homo sapiens) (UniProt P03372)          0.0
13                      CN(C)c1ccc(N(C)C)cc1  Estrogen receptor (Homo sapiens) (UniProt P03372)          0.0
14  Clc1ccc(C2(Cn3cncn3)CC(Br)CO2)c(Cl)c1 (centres undefined)  Estrogen receptor (Homo sapiens) (UniProt P03372)          0.0
15  CC[C@H]1C[C@H]2[C@@H]3CCC4=CC(=O)CC[C@@H]4[C@H]3CC[C@]2(C)[C@H]1O  Estrogen receptor (Homo sapiens) (UniProt P03372)          0.0
16  Clc1ccc(C(OCCN2CCCCC2)c2ccccc2)cc1 (centres undefined)  Estrogen receptor (Homo sapiens) (UniProt P03372)          0.0
17                      O=C(O)COc1ccc(Cl)cc1  Estrogen receptor (Homo sapiens) (UniProt P03372)          0.0
18                                  COC(N)=O  Estrogen receptor (Homo sapiens) (UniProt P03372)          0.0
